Biological target: α4β2α5N398 nAChR heterologously expressed in HEK293T cells (Mus musculus, UniProt O70174+Q2MKA5+Q9ERK7, D397N)
Sequence (Q2MKA5 30-467 D397N): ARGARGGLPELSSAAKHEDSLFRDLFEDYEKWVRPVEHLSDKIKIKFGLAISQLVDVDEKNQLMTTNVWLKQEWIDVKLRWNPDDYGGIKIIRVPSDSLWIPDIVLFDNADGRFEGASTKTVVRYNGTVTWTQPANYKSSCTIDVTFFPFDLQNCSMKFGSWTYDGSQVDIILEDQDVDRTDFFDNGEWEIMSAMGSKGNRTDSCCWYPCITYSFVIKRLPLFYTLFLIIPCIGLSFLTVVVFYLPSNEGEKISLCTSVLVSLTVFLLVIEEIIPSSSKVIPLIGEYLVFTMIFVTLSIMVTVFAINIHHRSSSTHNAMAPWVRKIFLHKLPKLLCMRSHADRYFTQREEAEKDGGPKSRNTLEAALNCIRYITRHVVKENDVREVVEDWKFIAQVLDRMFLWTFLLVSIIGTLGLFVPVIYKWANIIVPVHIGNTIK
Sequence (O70174 31-629): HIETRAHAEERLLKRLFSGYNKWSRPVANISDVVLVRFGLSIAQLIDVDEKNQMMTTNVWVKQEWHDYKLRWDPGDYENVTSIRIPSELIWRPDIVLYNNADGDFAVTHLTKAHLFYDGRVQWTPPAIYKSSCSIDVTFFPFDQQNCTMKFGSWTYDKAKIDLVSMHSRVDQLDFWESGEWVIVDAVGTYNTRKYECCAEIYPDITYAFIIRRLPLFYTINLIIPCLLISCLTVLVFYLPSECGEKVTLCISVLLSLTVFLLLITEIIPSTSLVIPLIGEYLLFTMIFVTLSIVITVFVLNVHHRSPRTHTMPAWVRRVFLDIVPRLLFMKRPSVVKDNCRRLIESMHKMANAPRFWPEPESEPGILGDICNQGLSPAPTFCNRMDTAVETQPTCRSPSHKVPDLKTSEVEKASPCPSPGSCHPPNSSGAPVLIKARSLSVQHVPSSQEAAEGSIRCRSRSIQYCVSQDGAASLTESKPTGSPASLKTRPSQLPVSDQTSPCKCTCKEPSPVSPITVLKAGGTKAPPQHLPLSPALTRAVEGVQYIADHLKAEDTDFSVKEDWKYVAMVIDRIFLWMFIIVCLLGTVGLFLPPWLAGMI
Sequence (Q9ERK7 26-501): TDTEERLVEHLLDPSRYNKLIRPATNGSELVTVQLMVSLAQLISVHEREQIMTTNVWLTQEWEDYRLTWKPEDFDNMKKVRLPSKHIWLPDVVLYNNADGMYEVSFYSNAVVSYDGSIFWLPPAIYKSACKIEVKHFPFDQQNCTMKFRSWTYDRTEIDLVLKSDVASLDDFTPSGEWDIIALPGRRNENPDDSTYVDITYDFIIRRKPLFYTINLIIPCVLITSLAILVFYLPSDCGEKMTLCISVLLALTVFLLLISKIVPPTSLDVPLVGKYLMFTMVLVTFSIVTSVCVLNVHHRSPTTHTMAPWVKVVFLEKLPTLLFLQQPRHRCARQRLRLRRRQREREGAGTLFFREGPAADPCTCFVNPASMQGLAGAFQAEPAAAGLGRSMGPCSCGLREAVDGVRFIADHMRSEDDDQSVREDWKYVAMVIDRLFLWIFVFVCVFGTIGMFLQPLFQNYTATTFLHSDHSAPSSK
Experiment: cell-based
MEASURED_PARAMETER: pEC50
Value format note: pEC50 is -log10 of concentration (mol/L); just state the number.

Briefly, pEC50 measured for Clc1ccc(C2CC3CCC2N3)cn1 (stereo not shown) [epibatidine] : 10.72
